Test target: T1, human transferrin receptor (TfR) ectodomain (ECD) (human, UniProt P02786 121-760, biotinylated where captured on streptavidin)
T1 construct: also called human TfR; huTfR
T1 sequence (P02786 121-760): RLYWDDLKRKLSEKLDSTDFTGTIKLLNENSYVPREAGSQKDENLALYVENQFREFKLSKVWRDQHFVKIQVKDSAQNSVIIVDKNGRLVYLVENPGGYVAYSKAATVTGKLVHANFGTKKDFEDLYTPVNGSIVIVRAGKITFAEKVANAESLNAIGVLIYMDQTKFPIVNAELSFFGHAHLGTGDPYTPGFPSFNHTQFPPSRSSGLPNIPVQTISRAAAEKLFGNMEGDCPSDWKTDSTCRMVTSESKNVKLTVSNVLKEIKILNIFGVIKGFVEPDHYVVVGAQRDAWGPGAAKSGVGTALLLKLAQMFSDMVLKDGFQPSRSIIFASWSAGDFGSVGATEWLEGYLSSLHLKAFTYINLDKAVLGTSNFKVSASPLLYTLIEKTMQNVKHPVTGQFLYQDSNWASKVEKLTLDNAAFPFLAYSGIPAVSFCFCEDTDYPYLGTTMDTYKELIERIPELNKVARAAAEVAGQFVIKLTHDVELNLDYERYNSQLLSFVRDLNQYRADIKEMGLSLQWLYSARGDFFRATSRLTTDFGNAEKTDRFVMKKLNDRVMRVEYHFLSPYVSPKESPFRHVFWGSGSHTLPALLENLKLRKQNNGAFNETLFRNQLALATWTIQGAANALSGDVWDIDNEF
Protocol summary: ELISA, Fc-Fab fusion (dimer format) titrated on plate-coated human TfR; OD650
Measurement type: binding result

Clone CH3B.5 (designed binder) PCPAPELLGGPSVFLFPPKPKDTLMISRTPEVTCVVVDVSHEDPEVKFNWYVDGVEVHNAKTKPREEQYNSTYRVVSVLTVLHQDWLNGKEYKCKVSNKALPAPIEKTISKAKGQPRFELVTTLPPSRDELTKNQVSLTCLVKGFYPSDIAVEWESNGQPENNYKTTPPVLDSDGSFFLYSKLTVDKSRWQQGNVFSCSVMHEALHNHYGFHDLSLSPGK: binds
Clone CH3B.4 (designed binder) PCPAPELLGGPSVFLFPPKPKDTLMISRTPEVTCVVVDVSHEDPEVKFNWYVDGVEVHNAKTKPREEQYNSTYRVVSVLTVLHQDWLNGKEYKCKVSNKALPAPIEKTISKAKGQPRFEMVTTLPPSRDELTKNQVSLTCLVKGFYPSDIAVEWESNGQPENNYKTTPPVLDSDGSFFLYSKLTVDKSRWQQGNVFSCSVMHEALHNHYGFHDLSLSPGK: binds
Clone CH3B.6 (designed binder) PCPAPELLGGPSVFLFPPKPKDTLMISRTPEVTCVVVDVSHEDPEVKFNWYVDGVEVHNAKTKPREEQYNSTYRVVSVLTVLHQDWLNGKEYKCKVSNKALPAPIEKTISKAKGQPRFEIVTTLPPSRDELTKNQVSLTCLVKGFYPSDIAVEWESNGQPENNYKTTPPVLDSDGSFFLYSKLTVDKSRWQQGNVFSCSVMHEALHNHYGFHDLSLSPGK: binds

Hey, just so you know, these numbers are from patent US20230235072A1.
